Target: T1, Ara h 2 (peanut, UniProt Q6PSU2 22-172)
T1 construct: also called full length Ara h 2
T1 sequence (looked up): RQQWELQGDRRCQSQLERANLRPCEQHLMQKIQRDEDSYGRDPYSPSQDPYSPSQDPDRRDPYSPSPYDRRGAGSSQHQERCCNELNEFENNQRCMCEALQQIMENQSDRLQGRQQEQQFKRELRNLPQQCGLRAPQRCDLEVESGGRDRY
Experiment: competition ELISA on coated Ara h 2; competitor: Patient B serum IgE; note: test concentration or dose not given here
metric: % inhibition of IgE binding (%)
Express it in %; write the number only.

Below are worked cases with known answers.
h4B2 (antibody, V domains shown, Recombinant human IgG; also called hMAb 4B2) VH: QVQLQEAGPRLVKPSQTLSVTCTVSGASITIGGYYWSWIRQHPGKGLEWMGYIYSNGRTYYNPSLKSRIAMSIDTSKNQFSLKLTSVTAADTAIYFCAREAWETPLWGQGTLITVSS VL: DIQMTQSPSSLSASVGDRVTITCQANQDIVNSLNWFQHKPGTAPKVLIYDASKLETGVPSRFSGSGSGTHFTFTISGLQPEDFATYFCQQYENLPHTFGQGTKLEIR: 30.6
h32B10 (antibody, V domains shown, Recombinant human IgG; also called hMAb 32B10) VH: QVQLVQSGAEVKKPGASVKVSCRASGYIFRNFDINWVRQATGQGLEWMGWMSPKSGDTGYAQKFQGRVTMTRDTSINTAYMELSSLTSEDSAVYYCARGVDGTNWGQGTRVTVSS VL: DIVMTQSPDSLGVSLGERATISCKSSQSILDNSNNKNFIAWFQQKPGQPPKLLIYWASARESGVPDRFSGSGSGTEFTLTINSLQAEDVAVYYCYQYYSTPHTFGQGTKLDLR: 26.7
h12G10 (antibody, human IgG1, V domains shown, Recombinant human IgG; also called hMAb 12G10) VH: EVQLLESGGRLLRPGGSLSLSCVASGFYFGDFGMSWVRQVPGKGLEWVSGIDWSGRSTGYVDSMKGRLTISRDNDKSSLYLQMNDLRGEDTAVYYCARVGRLCSGDSCDSMGAFDLWGQGTMVTVSS VL: DIQLTQSPSTLSASIGDSVTITCRASQNIDNWLAWYQQKPGKAPRLLIYKASSLGSGVSSKFRGSGFGTEFTLTITSLQPDDFATYYCQKSNGYSRTFGQGTKVDIK: 31.2

# input For the binder shown here, h37D5 (antibody, V domains shown, Recombinant human IgG; also called hMAb 37D5) VH: EEQLVESGGRLLRPGESLSLSCAAVGFNFGDFGMAWVRQPPGKGLEWVAGINWSGHSTGFVDSMKGRLTISRDSAKSSLFLQMNSLRGEDTAVYYCARVGRLCSGDICDSMGAFDLWGQGTMVTVSS VL: DIQMTQSPSTLSASIGDRVTITCRASQTIDNWLAWYQQRPGKAPKLLIYQASSLQSGVSSRFRGSGSGTEFTLTITSLQPDDFATYYCQKSNGYSRTFGQGTKVEIK , give the reported % inhibition of IgE binding.
# output 29.6

Reference source for all entries: patent US20200199207A1
